biological target: human muscarinic receptor M3 (Homo sapiens, UniProt P20309); construct: expressed in transfected cells; cultured in Ham's F-12 medium; test: Inhibition of M3-acetylcholine activation, Fluo-4 NW calcium fluorescence; assay type: cell-based; conditions: peptide 10 μM, 50 min incubation, 10 nM acetylcholine
Sequence (P20309 whole entry): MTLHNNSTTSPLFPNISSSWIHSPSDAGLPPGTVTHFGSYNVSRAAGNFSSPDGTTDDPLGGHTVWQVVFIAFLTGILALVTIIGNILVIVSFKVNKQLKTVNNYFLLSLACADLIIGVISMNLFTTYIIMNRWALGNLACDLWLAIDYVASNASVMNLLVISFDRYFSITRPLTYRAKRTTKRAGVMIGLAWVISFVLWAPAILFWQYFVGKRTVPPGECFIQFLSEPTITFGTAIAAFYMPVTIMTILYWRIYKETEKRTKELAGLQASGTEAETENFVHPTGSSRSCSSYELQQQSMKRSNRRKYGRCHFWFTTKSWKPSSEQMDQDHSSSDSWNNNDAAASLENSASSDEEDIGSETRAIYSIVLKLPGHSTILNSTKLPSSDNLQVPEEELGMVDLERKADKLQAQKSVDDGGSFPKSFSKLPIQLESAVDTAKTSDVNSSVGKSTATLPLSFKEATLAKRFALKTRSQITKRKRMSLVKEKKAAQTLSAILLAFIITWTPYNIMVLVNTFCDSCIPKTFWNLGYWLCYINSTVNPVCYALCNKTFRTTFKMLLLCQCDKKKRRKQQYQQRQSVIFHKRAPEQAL
* marks the point of attachment. Palmitoyl = CCCCCCCCCCCCCCCC(=O)*
% M3 inhibition of 30% or higher: True. Under 30%: False.

Observe how each entry below is paired with its result.
substance: Seq. ID No. 6 Palmitoyl: Nt-palmitoyl RMYKMMAGMYLR, C terminus amidated (Palmitoyl-RMYKMMAGMYLR-NH2)
assigned-category: True
//
substance: Seq. ID No. 8 Palmitoyl: Nt-palmitoyl RVMFKMFKRDY, C terminus amidated (Palmitoyl-RVMFKMFKRDY-NH2)
assigned-category: True

Evaluate Seq. ID No. 7 Acetyl: Nt-acetyl RVMYKMNKRDY, C terminus amidated (Ac-RVMYKMNKRDY-NH2) : % M3 inhibition at minimum 30%?
False

Kindly determine if % M3 inhibition recorded for Seq. ID No. 7 Palmitoyl: Nt-palmitoyl RVMYKMNKRDY, C terminus amidated (Palmitoyl-RVMYKMNKRDY-NH2) is above or exactly 30%.
True

Decide: % M3 inhibition of Seq. ID No. 8 Acetyl: Nt-acetyl RVMFKMFKRDY, C terminus amidated (Ac-RVMFKMFKRDY-NH2) >= 30%?
False

Determine whether this substance has % M3 inhibition no lower than 30%: Seq. ID No. 6 Acetyl: Nt-acetyl RMYKMMAGMYLR, C terminus amidated (Ac-RMYKMMAGMYLR-NH2)
False

---

target: human muscarinic receptor M3 (Homo sapiens, UniProt P20309); construct: expressed in transfected cells; cultured in Ham's F-12 medium; assay: Inhibition of M3-acetylcholine activation, Fluo-4 NW calcium fluorescence; format: cell-based; conditions: 50 min; peptide 50 μM, 50 min incubation, 10 nM acetylcholine
Peptide text beside a SMILES is read from it. * marks the point of attachment. Palmitoyl = CCCCCCCCCCCCCCCC(=O)*; Myristoyl = CCCCCCCCCCCCCC(=O)*
Kindly return Y if reported inhibition at 50 µM is no lower than 60%; return N if it is lower.

Solved entries:
molecule: CCCCCCCCCCCCCCCC(=O)N[C@@H](Cc1c[nH]c2ccccc12)C(=O)N[C@@H](CCSC)C(=O)N[C@@H](Cc1ccccc1)C(=O)N[C@@H](CC(C)C)C(=O)N[C@@H](CCCCN)C(N)=O [Seq. ID No. 5 Palmitoyl] (Palmitoyl-WMFLK-NH2)
assigned-category: N

molecule: CCCCCCCCCCCCCCCC(=O)N[C@@H](Cc1c[nH]c2ccccc12)C(=O)N[C@@H](CCSC)C(=O)N[C@@H](CCCNC(=N)N)C(=O)N[C@@H](CC(C)C)C(N)=O [Seq. ID No. 1 Palmitoyl] (Palmitoyl-WMRL-NH2)
assigned-category: Y

molecule: CCCCCCCCCCCCCC(=O)N[C@@H](CCCNC(=N)N)C(=O)N[C@@H](CCSC)C(=O)N[C@@H](Cc1ccc(O)cc1)C(=O)N[C@@H](CCCCN)C(=O)N[C@@H](CCSC)C(=O)N[C@@H](CCSC)C(=O)N[C@@H](C)C(=O)NCC(=O)N[C@@H](CCSC)C(=O)N[C@@H](Cc1ccc(O)cc1)C(=O)N[C@@H](CC(C)C)C(=O)N[C@@H](CCCNC(=N)N)C(N)=O [Seq. ID No. 6 Myristoyl] (Myristoyl-RMYKMMAGMYLR-NH2)
assigned-category: N

molecule: CCCCCCCCCCCCCC(=O)N[C@@H](CCCNC(=N)N)C(=O)N[C@H](C(=O)N[C@@H](CCSC)C(=O)N[C@@H](Cc1ccc(O)cc1)C(=O)N[C@@H](CCCCN)C(=O)N[C@@H](CCSC)C(=O)N[C@@H](CC(N)=O)C(=O)N[C@@H](CCCCN)C(=O)N[C@@H](CCCNC(=N)N)C(=O)N[C@@H](CC(=O)O)C(=O)N[C@@H](Cc1ccc(O)cc1)C(N)=O)C(C)C [Seq. ID No. 7 Myristoyl] (Myristoyl-RVMYKMNKRDY-NH2)
assigned-category: N

Check this molecule for inhibition at 50 µM at or above 60%: CCCCCCCCCCCCCCCC(=O)N[C@@H](Cc1c[nH]c2ccccc12)C(=O)N[C@@H](CCSC)C(=O)N[C@@H](CCCNC(=N)N)C(=O)N[C@@H](CC(C)C)C(=O)N[C@@H](CCCCN)C(N)=O [Seq. ID No. 2 Palmitoyl, Palm-WMRLK-NH2] (Palmitoyl-WMRLK-NH2)
Y

Threshold query (inhibition at 50 µM >= 60%) on CCCCCCCCCCCCCC(=O)N[C@@H](CCCNC(=N)N)C(=O)N[C@H](C(=O)N[C@@H](CCSC)C(=O)N[C@@H](Cc1ccccc1)C(=O)N[C@@H](CCCCN)C(=O)N[C@@H](CCSC)C(=O)N[C@@H](Cc1ccccc1)C(=O)N[C@@H](CCCCN)C(=O)N[C@@H](CCCNC(=N)N)C(=O)N[C@@H](CC(=O)O)C(=O)N[C@@H](Cc1ccc(O)cc1)C(N)=O)C(C)C [Seq. ID No. 8 Myristoyl] (Myristoyl-RVMFKMFKRDY-NH2)
Y

Could you tell me if the measured inhibition at 50 µM of CCCCCCCCCCCCCCCC(=O)N[C@@H](Cc1c[nH]c2ccccc12)C(=O)N[C@@H](CCSC)C(=O)N[C@@H](CCCNC(=N)N)C(=O)N[C@@H](CC(C)C)C(=O)N[C@@H](CCCCN)C(=O)N[C@@H](C)C(N)=O [Seq. ID No. 3 Palmitoyl] (Palmitoyl-WMRLKA-NH2) reaches 60% or more?
Y

---

Biological target: human muscarinic receptor M3 (Homo sapiens, UniProt P20309)
Construct: expressed in transfected cells; cultured in Ham's F-12 medium
Assay: Inhibition of M3-acetylcholine activation, Fluo-4 NW calcium fluorescence
Assay type: cell-based
Conditions: 50 min; peptide 100 μM, 50 min incubation, 10 nM acetylcholine
Procedure: Epithelial stable cell line constitutively expressing human muscarinic receptor M3 was used to assess peptides activity. Cells were seeded in 96-well plates at 50% cell confluence in 100 μL of complete Ham's F-12 medium. […] Afterwards, M3 activity was determined by reading the fluorescence in a FLUOstar Galaxy reader (BMG LabTechnologies) using 485 nm filter for excitation and 520 nm for emission, recording signal before and after M3 activation with 10 nM acetylcholine. […]
Peptide text beside a SMILES is read from it. * marks the point of attachment. Palmitoyl = CCCCCCCCCCCCCCCC(=O)*; Myristoyl = CCCCCCCCCCCCCC(=O)*
Returns one of label 1 or label 0; label 1 when inhibition at 100 µM is >= 90%.

See these solved cases before continuing.
molecule: CCCCCCCCCCCCCCCC(=O)N[C@@H](Cc1c[nH]c2ccccc12)C(=O)N[C@@H](CCSC)C(=O)N[C@@H](CCCNC(=N)N)C(=O)N[C@@H](CC(C)C)C(=O)N[C@@H](CCCCN)C(=O)N[C@@H](C)C(N)=O [Seq. ID No. 3 Palmitoyl] (Palmitoyl-WMRLKA-NH2)
assigned-category: label 0
//
molecule: CCCCCCCCCCCCCCCC(=O)N[C@@H](Cc1c[nH]c2ccccc12)C(=O)N[C@@H](CCSC)C(=O)N[C@@H](Cc1ccccc1)C(=O)N[C@@H](CC(C)C)C(=O)N[C@@H](CCCCN)C(N)=O [Seq. ID No. 5 Palmitoyl] (Palmitoyl-WMFLK-NH2)
assigned-category: label 0
//
molecule: CCCCCCCCCCCCCCCC(=O)N[C@@H](Cc1c[nH]c2ccccc12)C(=O)N[C@@H](CCSC)C(=O)N[C@@H](CCCNC(=N)N)C(=O)N[C@@H](CC(C)C)C(N)=O [Seq. ID No. 1 Palmitoyl] (Palmitoyl-WMRL-NH2)
assigned-category: label 1
//
molecule: CCCCCCCCCCCCCCCC(=O)N[C@@H](Cc1c[nH]c2ccccc12)C(=O)N[C@@H](CCSC)C(=O)N[C@@H](CC(N)=O)C(=O)N[C@@H](CC(C)C)C(=O)N[C@@H](CCCCN)C(=O)N[C@H](C(N)=O)[C@@H](C)O [Seq. ID No. 4 Palmitoyl] (Palmitoyl-WMNLKT-NH2)
assigned-category: label 0

Next up:
Identify whether the reported inhibition at 100 µM of the following molecule is 90% or greater: CCCCCCCCCCCCCC(=O)N[C@@H](CCCNC(=N)N)C(=O)N[C@H](C(=O)N[C@@H](CCSC)C(=O)N[C@@H](Cc1ccccc1)C(=O)N[C@@H](CCCCN)C(=O)N[C@@H](CCSC)C(=O)N[C@@H](Cc1ccccc1)C(=O)N[C@@H](CCCCN)C(=O)N[C@@H](CCCNC(=N)N)C(=O)N[C@@H](CC(=O)O)C(=O)N[C@@H](Cc1ccc(O)cc1)C(N)=O)C(C)C [Seq. ID No. 8 Myristoyl] (Myristoyl-RVMFKMFKRDY-NH2)
label 1

Hello, the source for this data is patent US12102705B2, in case you need it.
